protocol details: Antiproliferative activity against HUVEC assessed as inhibition of cell growth at 10 uM measured after 24 hrs by EdU incorporation based fluorescence microscopic analysis
Type: toxicity
cond: human, HUVEC cells, read-out: Activity
readout name: inhibition at 24 h, 10 µM (%)

> print(dat)
                                   compound  reported
1  CCCC(O)Cn1ncc(C(=O)OCC)c1NC(=O)NCc1cccc(C(F)(F)F)c1 (stereo unspecified)        20

* * *

Test system: HL-60(TB)
protocol details: Antiproliferative activity against human HL-60(TB) cells assessed as inhibition of cell growth at 10 uM
Format: functional
Set-up: scale not given: the % may be the effect or the level left
readout name: Activity

> print(dat)
                                   molecule  target.under.test  reported
1  CCCC(O)Cn1ncc(C(=O)OCC)c1NC(=O)NCc1cccc(F)c1 (stereo not given)          HL-60(TB)       41%
2  CCOC(=O)c1cnn(CC(C)O)c1NC(=O)NCc1ccccc1F (stereo not given)          HL-60(TB)       44%
3  CCOC(=O)c1cnn(CC(C)O)c1NC(=O)NCc1ccc(F)cc1 (stereo not given)          HL-60(TB)       53%
4  CCCC(O)Cn1ncc(C(=O)OCC)c1NC(=O)NCc1ccc(C(F)(F)F)cc1 (stereo not given)          HL-60(TB)       60%
5  CCOC(=O)c1cnn(CC(C)O)c1NC(=O)NCc1ccccc1C(F)(F)F (stereo not given)          HL-60(TB)       42%
